B1: TPR t1 (parent)
chain: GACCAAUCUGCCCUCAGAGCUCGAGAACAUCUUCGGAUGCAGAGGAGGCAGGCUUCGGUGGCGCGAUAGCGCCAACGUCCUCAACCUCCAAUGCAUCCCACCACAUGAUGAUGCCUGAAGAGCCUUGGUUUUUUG

Variants of: B1
Assay: polymerase ribozyme fitness, log enrichment relative to wild type (log ratio); higher = more active; in vitro selection for triplet polymerase activity
What polymerase ribozyme fitness (log ratio) was measured for each of the following?
Answers are plain numbers.

Solved cases (2 shown):
variant-designation	polymerase ribozyme fitness (log ratio)
G52U G58C G77A U87C U96G	-1.61
A5G C124A	1.03

Moving on to another variant below.
I am curious: what polymerase ribozyme fitness (log ratio) value has been reported for G44A C62A A111G ?
-3.93
